For each of the compounds below, state its pIC50.
# assay target: PRMT5 (Homo sapiens, UniProt O14744)
# Construct: purchased Viva (custom protein)
# Sequence (O14744 whole entry): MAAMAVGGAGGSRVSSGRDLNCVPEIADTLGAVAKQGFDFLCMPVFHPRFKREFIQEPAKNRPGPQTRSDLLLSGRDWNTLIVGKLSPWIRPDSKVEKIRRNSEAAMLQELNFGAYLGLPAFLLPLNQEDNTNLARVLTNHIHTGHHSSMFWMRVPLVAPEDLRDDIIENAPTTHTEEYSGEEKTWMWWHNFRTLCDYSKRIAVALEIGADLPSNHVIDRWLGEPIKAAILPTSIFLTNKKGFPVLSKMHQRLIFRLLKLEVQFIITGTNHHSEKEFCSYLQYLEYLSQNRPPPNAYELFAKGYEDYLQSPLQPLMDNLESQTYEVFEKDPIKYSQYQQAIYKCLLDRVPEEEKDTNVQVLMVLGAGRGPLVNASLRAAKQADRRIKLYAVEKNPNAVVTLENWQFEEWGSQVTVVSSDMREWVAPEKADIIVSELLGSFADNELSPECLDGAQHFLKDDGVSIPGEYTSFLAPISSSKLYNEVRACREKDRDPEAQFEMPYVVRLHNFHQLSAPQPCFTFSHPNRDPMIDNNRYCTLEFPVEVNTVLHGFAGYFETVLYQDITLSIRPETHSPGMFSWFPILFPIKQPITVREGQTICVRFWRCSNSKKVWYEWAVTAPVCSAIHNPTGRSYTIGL
# Sequence (Q9BQA1 whole entry partner): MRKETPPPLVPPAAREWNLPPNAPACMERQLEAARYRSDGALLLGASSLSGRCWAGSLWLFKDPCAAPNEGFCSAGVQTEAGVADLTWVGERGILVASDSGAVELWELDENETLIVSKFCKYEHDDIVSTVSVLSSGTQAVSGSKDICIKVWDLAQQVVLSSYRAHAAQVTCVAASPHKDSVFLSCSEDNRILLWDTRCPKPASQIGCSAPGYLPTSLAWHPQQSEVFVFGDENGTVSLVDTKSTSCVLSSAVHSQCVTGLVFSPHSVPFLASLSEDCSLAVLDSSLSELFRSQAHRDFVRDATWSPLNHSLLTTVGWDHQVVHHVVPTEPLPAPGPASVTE
# method summary: PRMT5 biochemical IC50 assay with MTA as cofactor
# assay conditions: PRMT5, MTA as cofactor; read-out: MTA IC50
pIC50: −log10 of the molar value.

CCc1cc(NC(=O)C(=O)N2C[C@@H](C)CC[C@@H]2c2ccc3sc([C@@H]4C[C@H]5CN(C)C[C@H]54)nc3c2)cnc1N: > 7.30
CCc1cc(NC(=O)C(=O)N2C[C@@H](C)CC[C@@H]2c2ccc3sc(N4CCOCC4)nc3c2)cnc1N: > 7.30

Below: the item to evaluate.
Request: Kindly state the measured pIC50 obtained for Cc1cc(NC(=O)C(=O)N2C[C@H](C)CC[C@H]2c2ccc3c(c2)CCC(=O)N3)cnc1C(F)F (racemic) with PRMT5 (Homo sapiens, UniProt O14744).
Response: 6.30 to 7.30

###

# assay target: PRMT5 (Homo sapiens)
# Construct: purchased Viva (custom protein)
# method summary: PRMT5 biochemical IC50 assay with MTA as cofactor
# assay conditions: PRMT5, MTA as cofactor; read-out: MTA IC50
For each of the compounds below, state its IC50.

Sample records with IC50:
COc1ncc(NC(=O)C(=O)N2C[C@@H](C)CC[C@@H]2C2CCCC2)cc1C(N)=O (single isomer, unassigned): > 500 nM
C[C@H]1CC[C@H](c2ccc3[nH]ncc3c2F)N(C(=O)C(=O)Nc2cncc(C(N)=O)c2)C1 (single isomer, unassigned): > 500 nM
Cc1cc(NC(=O)C(=O)N2C[C@@H](C)CC[C@@H]2c2ccc3sccc3c2)cnc1N (single isomer, unassigned): < 50 nM
Cc1cc(NC(=O)C(=O)N2C[C@@H](C)CC[C@@H]2c2ccc(CCN(C)C)cc2)cnc1N (single isomer, unassigned): > 500 nM
COc1ncc(NC(=O)C(=O)N2C[C@@H](C)CC[C@@H]2c2cncs2)cc1C(N)=O (single isomer, unassigned): < 50 nM

Request: // returns reported IC50 for input Cc1cc(NC(=O)C(=O)N2C[C@@H](C)CC[C@@H]2[C@@H]2CCC[C@@H](O)C2)cnc1N (single isomer, unassigned)
Response: > 500 nM

###

# Test system: HAP1 MTAP-deleted cell line
# method summary: SDMA in-cell western assay, HAP1 MTAP-deleted
# Assay type: cell-based
# assay conditions: Homo sapiens, HAP1, SDMA in-cell western, HAP1 MTAP-deleted; read-out: HAP1 MTAP deleted IC50
pIC50: −log10 of the molar value.
readout name: pIC50

Sample records with pIC50:
CCc1cc(NC(=O)C(=O)N2[C@@H](C)CCC[C@H]2c2ccc3sc(C4CCN(C)CC4)nc3c2)cnc1N (single isomer, unassigned): > 7.00
C[C@@H]1CC[C@@H](c2ccc(-c3ccn[nH]3)cc2)N(C(=O)C(=O)Nc2cncc(C(N)=O)c2)C1 (racemic): 6.00 to 7.00
C[C@H]1CC[C@H](c2ccc3sc(CCN(C)C)nc3c2)N(C(=O)C(=O)Nc2cncc(C(N)=O)c2)C1 (single isomer, unassigned): 6.00 to 7.00
CCc1cc(NC(=O)C(=O)N2C[C@@H](C)CC[C@@H]2c2ccc3sc([C@H]4CCN(C)C(C)(C)C4)nc3c2)cnc1N: > 7.00
C[C@@H]1CC[C@@H](c2ccc(F)cc2)N(C(=O)C(=O)Nc2cnc(N)c(C(F)F)c2)C1 (racemic): 6.00 to 7.00

Request: // returns reported pIC50 for input CNc1nc2cc([C@@H]3CC[C@@H](C)CN3C(=O)C(=O)Nc3cnc(N)c(C)c3)ccc2s1 (single isomer, unassigned)
Response: < 6.00

###

For each of the compounds below, state its pIC50.
# Tested on: HAP1 MTAP-deleted cell line
# method summary: SDMA in-cell western assay, HAP1 MTAP-deleted
# Assay type: cell-based
# assay conditions: Homo sapiens, HAP1, SDMA in-cell western, HAP1 MTAP-deleted; read-out: HAP 1 MTAP deleted IC50
pIC50: −log10 of the molar value.

# return pIC50 for each item in the list
1. Cc1cc(NC(=O)C(=O)N2C[C@H](C)CC[C@H]2c2ccc(C(C)(C)O)cc2)cnc1N (racemic)
2. Cc1ccc([C@@H]2CC[C@@H](C)CN2C(=O)C(=O)Nc2cnc(N)c(C)c2)nc1 (racemic)
3. C[C@@H]1CC[C@H](c2ccccc2)N(C(=O)C(=O)Nc2cncc(C(N)=O)c2)[C@@H]1C (racemic)
4. NC(=O)c1cncc(NC(=O)C(=O)N2CCC3(CC2)OCC2CC23)c1 (stereo not shown)
5. Cc1ncc(NC(=O)C(=O)N2C[C@@H](C)CC[C@@H]2c2ccc3sc(C4CCN(C)CC4)nc3c2)cc1C(F)(F)F
6. Cc1cc(NC(=O)C(=O)N2CCCC[C@@H]2c2cccs2)cnc1N (single isomer, unassigned)
7. C[C@H]1CC[C@H](c2ccc(F)cc2)N(C(=O)C(=O)Nc2cnc(OC(F)(F)F)c(C(N)=O)c2)C1

Response:
1: 6.00 to 7.00; 2: 6.00 to 7.00; 3: 6.00 to 7.00; 4: < 6.00; 5: > 7.00; 6: > 7.00; 7: 6.00 to 7.00

###

# assay target: PRMT5 (Homo sapiens)
# Construct: purchased Viva (custom protein)
# method summary: PRMT5 biochemical IC50 assay with SAM as cofactor
# assay conditions: PRMT5, SAM as cofactor; read-out: SAM IC50
For each of the molecules below, state its IC50.

Sample records with IC50:
COc1ncc(NC(=O)C(=O)N2C[C@@H](C)CC[C@@H]2c2ccc(CCN(C)C)c(Cl)c2)cc1C(N)=O: 50 to 500 nM
NC(=O)c1cncc(NC(=O)C(=O)N2CCC3(CC2)OCC2CC23)c1 (stereo not shown): 50 to 500 nM
CCc1cc(NC(=O)C(=O)N2C[C@@H](C)CC[C@@H]2c2ccc(N3CCN(C)CC3)cc2)cnc1N (single isomer, unassigned) [Compound 1371]: 50 to 500 nM
C[C@H]1CC[C@H](c2ccc(N)nc2)N(C(=O)C(=O)Nc2cncc(C(N)=O)c2)C1 (single isomer, unassigned): > 500 nM
C[C@H]1CC[C@H](c2ccc3c(c2)C[C@H](C)O3)N(C(=O)C(=O)Nc2cncc(C(N)=O)c2)C1 (single isomer, unassigned): > 500 nM

# return IC50 for each item in the list
1. CCc1cc(NC(=O)C(=O)N2C[C@@H](C)CC[C@@H]2c2ccc3sc([C@H]4CN(C)CCO4)nc3c2)cnc1N [Compound 1202]
2. Cn1nccc1C1CCCCN1C(=O)C(=O)Nc1cncc(C(N)=O)c1 (single isomer, unassigned) [Compound 46]
3. CCc1cc(NC(=O)C(=O)N2C[C@@H](C)CC[C@@H]2c2cc3cn[nH]c3s2)cnc1N (single isomer, unassigned)
4. Cc1cncc(NC(=O)C(=O)N2C[C@H](C)CC[C@H]2c2ccnc(C)c2)c1 (racemic)
5. Cc1cc(NC(=O)C(=O)N2C[C@H](C)[C@H](C)C[C@@H]2c2ccccc2)cnc1N (single isomer, unassigned)
6. CCc1cc(NC(=O)C(=O)N2C[C@@H](C)CC[C@@H]2c2ccc(NC(C)=O)nc2)cnc1N (single isomer, unassigned)

Response:
50 to 500 nM
50 to 500 nM
50 to 500 nM
50 to 500 nM
> 500 nM
50 to 500 nM

# return IC50 for each item in the list
1. Cc1cc(NC(=O)C(=O)N2CCCCC2c2cccs2)cnc1N (stereo not shown)
2. Cc1cc(NC(=O)C(=O)N2C[C@@H](C)CC[C@@H]2c2ccc(C(F)F)nc2)cnc1N (single isomer, unassigned)

Response:
["50 to 500 nM", "50 to 500 nM"]

###

# assay target: PRMT5 (Homo sapiens, UniProt O14744)
# Construct: purchased Viva (custom protein)
# method summary: PRMT5 biochemical IC50 assay with MTA as cofactor
# assay conditions: PRMT5, MTA as cofactor; read-out: MTA IC50
pIC50: −log10 of the molar value.
readout name: pIC50

Sample records with pIC50:
Cc1c(NC(=O)C(=O)N2C[C@@H](C)CC[C@@H]2c2ccc(O)cc2)cnc(N)c1C (single isomer, unassigned) [Compound 383]: > 7.30
Cc1cc(NC(=O)C(=O)N2C[C@H](C)CC[C@H]2c2ccc(F)c(Cl)c2)cnc1N (single isomer, unassigned) [Compound 596]: > 7.30
CCc1cc(NC(=O)C(=O)N2C[C@@H](C)CC[C@@H]2c2ccc3sc([C@@H]4[C@@H]5CN(C)C[C@@H]54)nc3c2)cnc1N [Compound 1366]: > 7.30
CCc1cc(NC(=O)C(=O)N2C[C@@H](C)CC[C@@H]2c2ccn3cc(C4CCN(C)CC4)nc3c2)cnc1N [Compound 1274]: > 7.30

# return pIC50 for each item in the list
1. COc1ncc(NC(=O)C(=O)N2C[C@@H](C)CC[C@@H]2c2ccc3nn(C4CCN(C)CC4)cc3c2)cc1C(N)=O (racemic) [Compound 1115]
2. C[C@H]1CC[C@H](c2ccc3[nH]ncc3n2)N(C(=O)C(=O)Nc2cncc(C(N)=O)c2)C1 (single isomer, unassigned) [Compound 778]
3. C[C@@H]1CC[C@@H](c2cccnc2)N(C(=O)C(=O)Nc2cncc(C(N)=O)c2)C1 (racemic) [Compound 102]

Response:
1. > 7.30
2. > 7.30
3. > 7.30

# return pIC50 for each item in the list
1. C[C@@H]1CC[C@@H](c2ccnn2C)N(C(=O)C(=O)Nc2cncc(C(N)=O)c2)C1 (racemic) [Compound 81]
2. C[C@@H]1CC[C@@H](C2CCCCC2)N(C(=O)C(=O)Nc2cncc(C(N)=O)c2)C1 (single isomer, unassigned) [Compound 130]
3. C[C@H]1CC[C@H](c2ccc(C(F)(F)F)c(Cl)c2)N(C(=O)C(=O)Nc2cncc(C(N)=O)c2)C1 (single isomer, unassigned) [Compound 655]
4. Cc1cc(NC(=O)C(=O)N2C[C@@H](C)CC[C@@H]2c2cccc3[nH]cnc23)cnc1N (single isomer, unassigned) [Compound 964]
5. C[C@@H]1CC[C@@H](c2ccc3sccc3c2)N(C(=O)C(=O)Nc2cncc(C(N)=O)c2)C1 (single isomer, unassigned) [Compound 586]
6. C[C@@H]1CC[C@@H](c2ccccc2)N(C(=O)C(=O)Nc2cncc(C(N)=O)c2)[C@H]1C (racemic) [Compound 181]

Response:
["6.30 to 7.30", "< 6.30", "> 7.30", "< 6.30", "< 6.30", "> 7.30"]

Sourced from patent US11999727B2
